Target: T1, Gadd45β/MKK7 complex (biotin-hGadd45β with coated GST-MKK7, ELISA format) (human, UniProt O75293 1-160; O14733 1-419, biotinylated (sites not given))
T1 construct: not shown: glutathione S-transferase (GST) fusion partner
T1 sequence (looked up) 1: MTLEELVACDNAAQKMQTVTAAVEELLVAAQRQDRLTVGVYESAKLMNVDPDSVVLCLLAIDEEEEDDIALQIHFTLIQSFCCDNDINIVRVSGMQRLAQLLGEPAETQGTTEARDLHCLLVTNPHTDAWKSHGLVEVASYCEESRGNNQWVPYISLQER
T1 sequence (looked up) 2: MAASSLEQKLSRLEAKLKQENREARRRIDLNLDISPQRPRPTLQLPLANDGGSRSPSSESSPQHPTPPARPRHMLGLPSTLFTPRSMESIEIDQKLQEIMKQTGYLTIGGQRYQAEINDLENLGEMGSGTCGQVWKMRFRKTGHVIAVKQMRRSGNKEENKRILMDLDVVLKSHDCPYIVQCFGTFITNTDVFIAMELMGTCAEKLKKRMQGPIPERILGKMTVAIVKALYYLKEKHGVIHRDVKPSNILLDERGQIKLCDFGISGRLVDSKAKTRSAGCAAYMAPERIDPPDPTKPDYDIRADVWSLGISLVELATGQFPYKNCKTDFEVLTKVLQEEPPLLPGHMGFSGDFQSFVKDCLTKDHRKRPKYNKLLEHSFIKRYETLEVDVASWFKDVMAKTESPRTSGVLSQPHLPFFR
Experiment: competition ELISA; coated MKK7 42 nM, biotin-hGadd45β 21 nM, competitor 42 nM nominal
* marks the point of attachment. Fmoc = O=C(OCC1c2ccccc2-c2ccccc21)*; βAla = NCCC(=O)O
readoutLabel: % Inhibition of Gadd45β-MKK7 binding (%)

[A] {Fmoc-βAla-βAla}-YDHM-NH2 (SMILES CSCC[C@H](NC(=O)[C@H](Cc1c[nH]cn1)NC(=O)[C@H](CC(=O)O)NC(=O)[C@H](Cc1ccc(O)cc1)NC(=O)CCNC(=O)CCNC(=O)OCC1c2ccccc2-c2ccccc21)C(N)=O) [Fmoc(βAla)2-YDHM-NH2]
[B] {Fmoc-βAla-βAla}-YDHH-NH2 (SMILES NC(=O)[C@H](Cc1c[nH]cn1)NC(=O)[C@H](Cc1c[nH]cn1)NC(=O)[C@H](CC(=O)O)NC(=O)[C@H](Cc1ccc(O)cc1)NC(=O)CCNC(=O)CCNC(=O)OCC1c2ccccc2-c2ccccc21) [Fmoc(βAla)2-YDHH-NH2]
Which entry shows the lesser value of % Inhibition of Gadd45β-MKK7 binding here, A or B ? Refer to your chosen entry by its label in the reply.
A
